Residues, ends and D or L forms follow the SMILES beside them.
property_name: melting point

Solved cases (5 shown):
Query :: What melting point value was documented for this molecule, Cc1oc(-c2ccccc2)nc1CCC(=O)c1ccc(CC2SC(=O)NC2=O)cc1 (centres undefined) ?
Result :: 145 to 146 °C

Query :: Also, COC(=O)C(Cc1ccccc1)NC(=O)C(CC(=O)O)NC(=O)CN (stereo not drawn) (H-Gly-Asp-Phe-OMe; configuration not given here) please.
Result :: 233 to 235 °C

Query :: Now the molecule CC(=O)SCC(Cc1ccccc1)NC(=O)N1CCN(C)CC1 (single isomer, unassigned; (+))
Result :: 78 °C

Query :: // same read-out, input: `CCCNC(=O)C(C)(C)Cc1ccc2c(c1)c(Cc1ccc(C(=O)O)cc1OC)cn2CCC`
Result :: 78 to 90 °C

Query :: Also `CC(=O)CCc1ccc2c(c1)C(=O)c1ccccc1-2` ?
Result :: 75 to 77 °C

Continuing:
Query :: Could you share which melting point value was measured for `CC(C)CC(=O)Nc1cccc(-c2ccnc3c(Br)cnn23)c1` ?
Result :: 132 to 134 °C

Query :: Can you handle `CC(=O)NC[C@H]1CN(c2ccc(N3CCC(c4nnn[nH]4)CC3)c(F)c2)C(=O)O1` next?
Result :: 148 to 150 °C

Query :: Okay, and `CCCCn1c(=O)c2c(NC)n[nH]c2n(Cc2ccc([N+](=O)[O-])cc2)c1=O` ?
Result :: 277 to 279 °C

Query :: What do we get for `CC(C)n1c(=O)c2c(-c3nc(C4CC4)no3)ncn2c2cccnc21` ?
Result :: 221 to 223 °C

---

property_name: melting point

Query :: Fill in the blank: the reported melting point of NC(Cc1ccccc1)C(=O)NC1N=C(c2ccccc2)c2ccccc2NC1=O (stereo unspecified) is ____.
Result :: 208 to 210 °C

Query :: What do you get for `Nc1ccccc1Nc1ccccc1F` ?
Result :: 82 to 83 °C

Query :: Try this compound too: `COc1cc(OC)c(C2=CCN(C)CC2)c(OC)c1`
Result :: 112 to 114 °C

Further cases:
Query :: Please give the measured melting point for this compound: `OCc1cc(F)cc(Br)c1`
Result :: 41 to 43 °C

Query :: `O=[N+]([O-])c1ccc(O)cc1OCCO` ?
Result :: 167 °C

Query :: Then this compound: `CCOC(=O)C(C)(C)Oc1ccc(-c2ccc(CNC(=O)c3cc(Cl)ccc3OC)cc2)cc1`
Result :: < 20 °C

---

property_name: melting point

Query :: Quick one: melting point for `Nc1nc2ccc(CO)cc2n1Cc1cccc2cccnc12` ?
Result :: 230 °C

Query :: Also need CC(C)(C)OC(=O)N1CCC2(Cc3cc4ccccc4n3C2)C1 (configuration not stated) , thanks.
Result :: 104 to 106 °C

Query :: Then what about the molecule `CCOP(=O)(NN=C(c1ccc(Cl)cc1)c1ccc(OS(C)(=O)=O)cc1)OCC` ?
Result :: 90 to 91 °C

Query :: Repeat for the following molecule: `Cc1cccc(NC(=O)CN2CCN(c3ccccc3C#N)CC2)c1`
Result :: 168 to 170 °C

Query :: How about `O=C(Nc1cc2ncc(CN3CCCC3)cc2cc1N1CCCC1)c1ccc(Br)cc1` ?
Result :: 171 to 173 °C

New cases:
Query :: I have this molecule here, `Clc1ccc(Cc2cccc(-c3ncc4c(n3)CCCC4)n2)cn1` , and I need its recorded melting point.
Result :: 115 to 120 °C

Query :: Next molecule up: `COc1nc(Cl)nc(N)c1-c1ccccc1`
Result :: 213 °C

Query :: Then this molecule: `O=C(O)c1cc(=O)c2oc3ccc(Cl)cc3c(=O)c2n1Cc1ccccc1`
Result :: 269 to 271 °C

Query :: Thanks! And `CCOC(=O)C(C)=NNc1ccc(C)cc1C` ?
Result :: 146 °C

Query :: What about this molecule? Nc1nc(Cl)cc(OCC(O)CO)n1 (configuration not stated)
Result :: 175 to 177 °C

Query :: Query CNC(=O)c1cc2c(nc(C)n2C)c2c1CCC(OC)(c1ccccc1C)O2 (configuration not stated) next
Result :: 257 to 261 °C

Query :: Another molecule to check: `Clc1nc(-c2ccccc2)nc2c1Cc1ccccc1O2`
Result :: 168 to 170 °C

---

Each entry below carries its recorded melting point.

Record excerpt, results attached:
Query :: Query: melting point; subject: `O=C(O)/C=C(\c1ccccc1)c1ccncc1`
Result :: 239 to 241 °C

Query :: Try the molecule `Cc1nc(Cl)n(-c2ccccc2)n1`
Result :: 81 to 84 °C

Query :: Thanks! And Cc1ccc(S(=O)(=O)OCC2(CO)OC(n3ccc(=O)[nH]c3=O)C(O)C2OCc2ccccc2)cc1 (stereo unspecified) ?
Result :: 195 to 197 °C

Others:
Query :: Query: melting point; subject: `Cc1cc(Cn2cc(C(F)(F)C(F)(F)F)c(C(F)(F)C(F)(F)F)n2)ccc1NC(=O)c1cccc(Br)c1C(=O)N[C@@H](C)CS(C)(=O)=O`
Result :: 134 to 136 °C

Query :: Also check `CCC(O)(CC)c1cccc2[nH]c(=O)n(C)c12`
Result :: 199 to 201 °C

Query :: Another molecule: `CN(C)c1ccc(-c2cnc(N)c([N+](=O)[O-])c2)cc1`
Result :: 212 °C

---

Readings of melting point for the listed molecules

Here's what some known entries look like.
Query :: Would you kindly share the measured melting point for `NNC(=O)c1cc2c(Oc3ccc(C(F)(F)F)cc3)cncc2s1` ?
Result :: 146 to 147 °C

Query :: Same question for `FC(F)(F)c1cccnc1-n1c(/C=C/c2ccccc2)nc2ccccc21` please.
Result :: 156 to 157 °C

Query :: Repeat with `Nc1sc2c(c1C(=O)c1ccccn1)CCCC2`
Result :: 191 to 193 °C

Query :: Then this molecule: `CC(=CC#N)c1cc(-c2ccc(S(C)(=O)=O)cc2)c(-c2ccc(F)cc2)s1`
Result :: 150 to 154 °C

Further cases:
Query :: Query (molecule): `CCOC(=O)c1c(C(F)F)nc(C(F)(F)F)c(C(=O)OCC)c1C1CC1` ; field requested: melting point
Result :: 30 to 32 °C

---

Below, each of the compounds is paired with its reported melting point value.

Some solved cases for reference:
Query :: Give the measured melting point of `CCOC(=O)C(=CNC(C)(C)C)C(=O)c1cc(F)c(F)c(F)c1F` .
Result :: 112 °C

Query :: Further, for `CCOC(=O)C(=O)Nc1c([N+](=O)[O-])cc(Br)c2cccnc12` ?
Result :: 213 to 215 °C

Query :: How about this compound: `Cc1ccc(Oc2ccc(C(=O)O)cc2)cc1`
Result :: 175 °C

Query :: How about this compound: `C#CCCCCCCNC(=O)C(F)(F)F`
Result :: 29.5 to 30 °C

Query :: Then what about the compound `CC(=O)c1cc(NC(=O)NCCCN(CCCNC(=O)Nc2cc(C(C)=O)cc(C(C)=O)c2)CCCNC(=O)Nc2cc(C(C)=O)cc(C(C)=O)c2)cc(C(C)=O)c1` ?
Result :: 147 to 148 °C

***
Query :: Query: melting point; subject: CCN(C)C(=O)c1cc(C)c(C(c2cc(F)ccc2F)S(=O)(=O)c2ccc(F)cc2)cn1 (stereo not given)
Result :: 165 to 167 °C

Query :: What would you report for O=C1C(c2ccccc2)SCN1CCCCBr (stereo not given) ?
Result :: 48 to 50 °C

Query :: How about this compound: `CCOC(=O)c1cnn(-c2cc(Cl)cc(Cl)c2)c1SC`
Result :: 70 to 72 °C

Query :: Moving on to the next compound: `CCn1ncc(OCc2ccc(C(=O)c3ccc(Cl)cc3)s2)c(Cl)c1=O`
Result :: 168 °C

Query :: // next record `Cc1c(-c2ccc3oc(=O)n(C)c3c2)nc2c(O)cccn12`
Result :: > 280 °C

---

Measured melting point values are reported for all entries that follow.

Query :: Give its melting point value. Item: `OCc1c(Cl)cncc1Cl`
Result :: 87 to 88 °C

Query :: Try this molecule next: CC(=O)C1(O)CCC2C3C=C(C)C4=CC(=O)CCC4(CO)C3CCC21C (stereo not given)
Result :: 184 to 186 °C

Query :: Next up: `N#CCc1ccc(NC(=O)c2ccc(C=O)cc2)cc1`
Result :: 194 °C

Query :: Try COc1ccc(C(OCC2(COS(=O)(=O)c3ccc(C)cc3)OC(n3ccc(=O)[nH]c3=O)C(O)C2O)(c2ccccc2)c2ccc(OC)cc2)cc1 (stereo not given) next.
Result :: 104 to 105 °C

Query :: Next entry: `Cc1ccc(S(=O)(=O)N2CCN(C(=O)c3ccc(Nc4ccnc5cc(C(F)(F)F)ccc45)cc3)CC2)cc1`
Result :: 215 to 217 °C

Query :: Same for `COc1nc(C)cnc1NS(=O)(=O)c1cnccc1-c1ccc(CC(C)C)cc1`
Result :: 232 to 233 °C

Query :: Next molecule up: `CC(C)c1nc(CC(=O)O)c(-c2ccco2)o1`
Result :: 108 to 109 °C

Query :: Field entry: `Cc1nnc(-c2nsc3ccc([N+](=O)[O-])cc23)s1`
Result :: 239 to 240 °C

Further cases:
Query :: Find the recorded melting point belonging to `COc1c(N2CCC(=NO)CC2)c(F)cc2c(=O)c(C(=O)O)cn(C3CC3)c12` and report it.
Result :: 258 to 261 °C

Query :: Try `O=C(O)c1ccc(C(=O)NOCCCc2ccccc2)cc1` next.
Result :: 171 to 173 °C
